- system: Cytochrome P450 11B2, mitochondrial (Homo sapiens, UniProt P19099)
- assay-text: In vitro inhibition of human CYP11B2 expressed in Schizosaccharomyces pombe incubated with 100 nM of substrate deoxy-corticosterone in presence of 500 nM of compound
assay-readout: inhibition at 0.5 µM (%)

| chemical-structure | readout-units | inhibition at 0.5 µM |
| --- | --- | --- |
| Fc1ccc2c(c1)CC/C2=C\c1cccc2ncccc12 | % | 0 |
| Cc1ccc2c(c1)/C(=C\c1ccncc1)CC2 | % | 46 |

P: C(=C1\CCc2ccccc21)/c1cccnc1
Q: COc1ccc2c(c1)CCC/C2=C\c1ccncc1
// query Pick the one with the larger inhibition at 0.5 µM: P vs Q // output: label of the selected item
// result P
(P: 83%, Q: 31%)

P: COc1ccc2c(c1)CCC/C2=C/c1ccncc1
Q: COc1ccc2c(c1)CC/C2=C/c1ccncc1
R: C/C(=C1/CCc2cc(F)ccc21)c1cccnc1
// query List by increasing inhibition at 0.5 µM. Output the labels ranked as instructed.
// result Q, P, R

###

- system: UniProtKB P19099
- Sequence (P19099 whole entry): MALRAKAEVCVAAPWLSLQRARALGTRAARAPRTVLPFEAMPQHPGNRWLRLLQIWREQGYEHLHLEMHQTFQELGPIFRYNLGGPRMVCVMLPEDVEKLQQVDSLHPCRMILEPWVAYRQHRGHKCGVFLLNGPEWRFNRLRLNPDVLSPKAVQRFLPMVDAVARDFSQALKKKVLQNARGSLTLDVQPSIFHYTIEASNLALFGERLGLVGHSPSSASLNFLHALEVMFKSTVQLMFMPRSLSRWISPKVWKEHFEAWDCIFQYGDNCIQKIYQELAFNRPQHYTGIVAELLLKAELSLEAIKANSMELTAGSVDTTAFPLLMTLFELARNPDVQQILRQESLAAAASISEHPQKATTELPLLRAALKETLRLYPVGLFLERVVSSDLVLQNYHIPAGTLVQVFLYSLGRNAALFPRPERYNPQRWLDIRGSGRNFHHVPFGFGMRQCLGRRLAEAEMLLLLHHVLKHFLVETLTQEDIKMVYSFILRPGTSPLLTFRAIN
- assay-text: In vitro inhibitory concentration against human CYP11B2 expressed in V79MZh hamster fibroblasts incubated with 100 nM of substrate deoxy-corticosterone in presence of the compound
assay-readout: IC50 (nM)

Example entries and their recorded answers appear below.
| chemical-structure | IC50, nM |
| --- | --- |
| COc1ccc2c(c1)CCC/C2=C\c1ccncc1 | 22 |
| Brc1ccc2c(c1)CC/C2=C\c1ccncc1 | 24 |
| C(=C1c2ccccc2-c2ccccc21)c1ccncc1 | 5 |
| C(=C(c1ccccc1)c1ccccc1)c1ccncc1 | 22 |

A: COc1ccc2c(c1)CC/C2=C\c1cncs1
B: Fc1ccc2c(c1)CC/C2=C/c1cccc2ncccc12
// query Hey, between A and B which has a smaller measured IC50? // output: label of the selected item
// result A
(A: 17 nM, B: 31 nM)

###

- system: Aromatase (Homo sapiens, UniProt P11511)
- Sequence (P11511 whole entry): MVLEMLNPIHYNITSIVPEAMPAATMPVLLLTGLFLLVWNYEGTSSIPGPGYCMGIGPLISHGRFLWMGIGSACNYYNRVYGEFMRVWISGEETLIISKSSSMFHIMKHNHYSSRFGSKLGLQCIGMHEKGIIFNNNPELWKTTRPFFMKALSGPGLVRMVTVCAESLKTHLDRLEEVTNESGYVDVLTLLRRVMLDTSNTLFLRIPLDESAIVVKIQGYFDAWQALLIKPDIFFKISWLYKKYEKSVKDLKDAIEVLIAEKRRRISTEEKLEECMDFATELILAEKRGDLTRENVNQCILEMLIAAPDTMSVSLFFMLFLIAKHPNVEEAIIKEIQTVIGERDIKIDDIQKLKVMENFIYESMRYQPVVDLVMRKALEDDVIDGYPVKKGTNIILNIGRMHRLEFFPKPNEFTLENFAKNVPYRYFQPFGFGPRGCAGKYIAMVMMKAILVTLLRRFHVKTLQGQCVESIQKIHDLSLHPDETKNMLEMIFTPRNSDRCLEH
- assay-text: In vitro inhibitory concentration against human placental CYP19 incubated with 500 nM of substrate androstenedione in presence of the compound
assay-readout: IC50 (µM)

I: COc1ccc2c(c1)/C(=C/c1cccnc1)CC2
II: C(=C(c1ccccc1)c1ccccc1)c1ccncc1
// query Hey, between I and II which has a smaller measured IC50? // output: label of the selected item
// result II

P: C(=C1c2ccccc2-c2ccccc21)c1cccnc1
Q: C(=C1c2ccccc2-c2ccccc21)c1ccncc1
R: COc1cc2c(cc1OC)/C(=C/c1ccncc1)CCC2
S: Fc1cccc2c1CC/C2=C/c1cccnc1
T: Fc1ccc2c(c1)CC/C2=C/c1cncnc1
// query List by increasing IC50. Output the labels ranked as instructed.
// result R, S, T, Q, P
